Molecular target: SUV420H1 enzyme (Homo sapiens, UniProt Q4FZB7)
Sequence (Q4FZB7 whole entry): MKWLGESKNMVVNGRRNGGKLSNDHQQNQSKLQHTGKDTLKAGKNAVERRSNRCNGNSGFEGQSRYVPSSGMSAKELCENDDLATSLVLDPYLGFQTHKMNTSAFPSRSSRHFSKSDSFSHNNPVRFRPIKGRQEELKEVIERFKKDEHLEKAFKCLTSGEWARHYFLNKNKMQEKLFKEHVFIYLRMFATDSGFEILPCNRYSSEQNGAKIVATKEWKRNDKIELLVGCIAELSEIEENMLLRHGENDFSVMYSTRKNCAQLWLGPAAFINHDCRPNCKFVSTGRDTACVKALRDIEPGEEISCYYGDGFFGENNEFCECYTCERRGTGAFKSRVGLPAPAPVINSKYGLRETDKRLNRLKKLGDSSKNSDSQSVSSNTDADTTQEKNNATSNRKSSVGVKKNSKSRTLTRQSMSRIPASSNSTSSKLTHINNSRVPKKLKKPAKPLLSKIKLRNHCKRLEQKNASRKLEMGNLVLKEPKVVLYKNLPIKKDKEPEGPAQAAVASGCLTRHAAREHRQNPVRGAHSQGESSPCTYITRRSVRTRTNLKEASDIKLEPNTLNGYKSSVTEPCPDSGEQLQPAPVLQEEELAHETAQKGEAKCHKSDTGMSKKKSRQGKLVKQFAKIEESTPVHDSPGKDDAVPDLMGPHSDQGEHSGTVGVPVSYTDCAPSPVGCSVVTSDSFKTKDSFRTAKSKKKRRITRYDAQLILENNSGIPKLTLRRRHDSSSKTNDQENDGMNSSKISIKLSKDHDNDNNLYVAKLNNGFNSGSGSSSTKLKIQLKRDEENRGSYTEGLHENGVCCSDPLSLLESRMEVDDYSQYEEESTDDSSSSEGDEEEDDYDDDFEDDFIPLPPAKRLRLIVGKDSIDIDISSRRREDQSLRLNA
Binning of IC50 into classes: c1 = under 0.5 µM, c2 = from 0.5 µM up to 1 µM, c3 = 1 µM and over

Examples with answers:
# smilesText, categoryLabel
records = [
    ("Clc1cc2c(NC3CCCC3)nnc(C3=CCNCC3)c2cc1Cl", "c3"),
    ("NC(=O)CC(=O)N1CC=C(c2nnc(NC3CCCC3)c3cc(Cl)c(Cl)cc23)CC1", "c2"),
    ("O=S(=O)(C1CC1)N1CC=C(c2nnc(NC3CCCC3)c3cc(Cl)c(Cl)cc23)CC1", "c1"),
    ("CN1CCN(C(=O)c2nnc(NC3CCCC3)c3cc(Cl)c(Cl)cc23)CC1", "c3"),
    ("CN1CCN(c2nnc(NC3CCCC3)c3cc(Cl)c(Cl)cc23)CC1", "c1"),
    ("CC(=O)N1CC=C(c2nnc(NC3CCCC3)c3cc(Cl)c(Cl)cc23)CC1", "c3"),
    ("Clc1cc2c(Cl)nnc(NC3CCCC3)c2cc1Cl", "c1"),
    ("O=C(Nc1ccccc1)c1nnc(NC2CCCC2)c2cc(Cl)c(Cl)cc12", "c3"),
]

Pending molecule:
Lab note: which band did Fc1cc(-c2nnc(NC3CCCC3)c3cc(Cl)c(Cl)cc23)ccn1 land in? c2

----------
Target: SUV420H1 enzyme (Homo sapiens)
Please use Met for IC50 under 2000 nM and Not met for everything else, ties included.

# compound, systemName, categoryLabel
rows = [
    ("O=C(Cn1cc(-c2nnc(NC3CCCC3)c3cc(Cl)c(Cl)cc23)cn1)N1CCCC1 [Example 58]", "SUV420H1 enzyme (Homo sapiens)", "Not met"),
]

Criterion: IC50 strictly below 2000 nM. Is it met by CC(C)(C)OC(=O)N1CC=C(c2nnc(NC3CCCC3)c3cc(Cl)c(Cl)cc23)CC1 [Example 23] ? Met

Lookup O=S(=O)(c1ccccc1)N1CC=C(c2nnc(NC3CCCC3)c3cc(Cl)c(Cl)cc23)CC1 [Example 69] Not met

// repeat for Clc1cc2c(NC3CCCC3)nnc(-c3ccc(N4CCCC4)nc3)c2cc1Cl [Example 31] and report Not met

----------
Tested on: H4K20me3 in PC-3 cells (SUV420H1 cellular activity)
Assay: H4K20me3 Cellular PD Assay (high content microscopy)
Format: cell-based
Settings: Homo sapiens, treated for 72 hours, H4K20me3 immunofluorescence, read-out: H4K20me3 Inhibition EC50
measuredParameter: log10(EC50) (log10 of the value in µM)
In our notation, the value equals log10 of EC50 in µM.

# molecule, log10(EC50)
data = [
    ("CC(=O)N1CCN(C(=O)Cn2cc(-c3nnc(NC4CCCC4)c4cc(Cl)c(Cl)cc34)cn2)CC1", 1.02),
    ("Clc1cc2c(NC3CCCC3)nnc(-c3ccsc3)c2cc1Cl", 0.18),
    ("Cn1cc(C(=O)N2CC=C(c3nnc(NC4CCCC4)c4cc(Cl)c(Cl)cc34)CC2)cn1", 1.12),
    ("CN(C)c1ccc(-c2nnc(NC3CCCC3)c3cc(Cl)c(Cl)cc23)cn1", 0.98),
    ("COC(=O)c1nnc(NC2CCCC2)c2cc(Cl)c(Cl)cc12", 0.05),
    ("OC1CCN(c2cc(-c3nnc(NC4CCCC4)c4cc(Cl)c(Cl)cc34)ccn2)CC1", 0.49),
]

Consider the molecule Cn1cc(-c2nnc(NC3CCCC3)c3cc(Cl)c(Cl)cc23)cn1 and give its measured log10(EC50). -0.30

Proceed to CN(CCO)C(=O)Cn1cc(-c2nnc(NC3CCCC3)c3cc(Cl)c(Cl)cc23)cn1 1.03

Record: Clc1cc2c(Cl)nnc(NC3CCCC3)c2cc1Cl 1.06

Same again, this time with Clc1cc2c(NC3CCCC3)nnc(-c3ccncc3)c2cc1Cl -0.28

Now give it for O=C(Cn1cc(-c2nnc(NC3CCCC3)c3cc(Cl)c(Cl)cc23)cn1)NCCO too. 0.83

Same read-out for CN(CCO)c1ccc(-c2nnc(NC3CCCC3)c3cc(Cl)c(Cl)cc23)cn1 ? 0.65

Okay, and O=C(NCCO)c1nnc(NC2CCCC2)c2cc(Cl)c(Cl)cc12 ? 0.40

Could you do the same for CC(C)(C)OC(=O)Cn1cc(-c2nnc(NC3CCCC3)c3cc(Cl)c(Cl)cc23)cn1 , please? 0.90

Do the same for NC(=O)c1nnc(NC2CCCC2)c2cc(Cl)c(Cl)cc12 please 0.45

Request: Clc1cc2c(NC3CCCC3)nnc(-c3ccnc(N4CCNCC4)c3)c2cc1Cl 0.02
